Assay: Growth inhibition of human NCI60 cells at 10 uM after 48 hrs by SRB assay
Type: functional
Settings: NCI60, 48 h, values are per cent of control

Substance smiles	growth, % of control at 10 µM, %
COc1cc(-c2c(C#N)nnn2-c2cccc(Cl)c2)cc(OC)c1OC	92.6
COc1cccc(-c2c(C#N)nnn2-c2cccc(Cl)c2)c1	92
COc1ccc(-c2c(C(=O)O)nnn2-c2cc(OC)c(OC)c(OC)c2)cc1	99.4
COc1ccc(-c2c(C#N)nnn2-c2ccc(OC)cc2)cc1	96.7
COc1ccc(-n2nnc(C(=O)O)c2-c2cc(OC)c(OC)c(OC)c2)cc1	104
COc1ccc(-c2c(C(N)=O)nnn2-c2cc(OC)c(OC)c(OC)c2)cc1	101
COc1cc(-c2c(C(N)=O)nnn2-c2cc(OC)c(OC)c(OC)c2)cc(OC)c1OC	102
COc1cc(-c2c(C#N)nnn2-c2cc(OC)c(OC)c(OC)c2)cc(OC)c1OC	98.8
COc1ccc(-n2nnc(N)c2-c2cc(OC)c(OC)c(OC)c2)cc1	90.1

---

Recorded GI50 values for a group of compounds are listed next.
Test: Growth inhibition of human SF539 cells after 48 hrs by SRB assay
Type: functional
Conditions: SF-539, 48 h
Measured property: GI50

Compound	Measured property	Value
COc1ccc(-c2nn[nH]c2-c2cc(OC)c3c(c2)OCO3)cc1	GI50	17 nM
COc1ccc(/C=C\c2cc(OC)c(OC)c(OC)c2)cc1O [COMBRETASTATIN A4]	GI50	3 nM
COc1ccc(-c2cnnn2-c2cc(OC)c3c(c2)OCO3)cc1	GI50	95 nM
COc1ccc(-c2nn[nH]c2-c2cc(OC)c(OC)c(OC)c2)cc1	GI50	< 10 nM
COc1ccc(-c2nn[nH]c2-c2cc(OC)c3c(c2OC)OCO3)cc1	GI50	909 nM

---

Experiment: Growth inhibition of human RXF393 cells after 48 hrs by SRB assay
Assay type: functional
Details: RXF 393, 48 h

Compound	GI50
COc1ccc(/C=C\c2cc(OC)c(OC)c(OC)c2)cc1O [COMBRETASTATIN A4]	2 nM
COc1ccc(-c2nn[nH]c2-c2cc(OC)c3c(c2)OCO3)cc1	17 nM
COc1ccc(-c2cnnn2-c2cc(OC)c3c(c2)OCO3)cc1	157 nM
COc1ccc(-c2nn[nH]c2-c2cc(OC)c3c(c2OC)OCO3)cc1	657 nM
COc1ccc(-c2nn[nH]c2-c2cc(OC)c(OC)c(OC)c2)cc1	< 10 nM

---

Experiment: Growth inhibition of human HCC2998 cells after 48 hrs by SRB assay
Type: functional
Conditions: HCC 2998, 48 h

Substance smiles	Comparison operator	GI50, nM
COc1ccc(-c2nn[nH]c2-c2cc(OC)c3c(c2)OCO3)cc1	=	44
COc1ccc(-c2cnnn2-c2cc(OC)c3c(c2)OCO3)cc1	=	258
COc1ccc(-c2nn[nH]c2-c2cc(OC)c(OC)c(OC)c2)cc1	<	10
COc1ccc(/C=C\c2cc(OC)c(OC)c(OC)c2)cc1O	=	63
COc1ccc(-c2nn[nH]c2-c2cc(OC)c3c(c2OC)OCO3)cc1	=	1110

---

System: SK-OV-3
Experiment: Growth inhibition of human SKOV3 cells after 48 hrs by SRB assay
Format: functional
Details: SK-OV-3, 48 h

Substance smiles	GI50
COc1ccc(-c2cnnn2-c2cc(OC)c3c(c2)OCO3)cc1	271 nM
COc1ccc(-c2nn[nH]c2-c2cc(OC)c3c(c2)OCO3)cc1	23 nM
COc1ccc(-c2nn[nH]c2-c2cc(OC)c3c(c2OC)OCO3)cc1	854 nM
COc1ccc(-c2nn[nH]c2-c2cc(OC)c(OC)c(OC)c2)cc1	< 10 nM
COc1ccc(/C=C\c2cc(OC)c(OC)c(OC)c2)cc1O	59 nM

---

Tested on: K562
Test: Growth inhibition of human K562 cells after 48 hrs by SRB assay
Assay type: functional
Conditions: K562, 48 h
Each item that follows carries a reported GI50.

Substance smiles	GI50
COc1ccc(/C=C\c2cc(OC)c(OC)c(OC)c2)cc1O	0.002 µM
COc1ccc(-c2nn[nH]c2-c2cc(OC)c3c(c2OC)OCO3)cc1	0.493 µM
COc1ccc(-c2nn[nH]c2-c2cc(OC)c(OC)c(OC)c2)cc1	< 0.01 µM
COc1ccc(-c2cnnn2-c2cc(OC)c3c(c2)OCO3)cc1	0.041 µM
COc1ccc(-c2nn[nH]c2-c2cc(OC)c3c(c2)OCO3)cc1	< 0.01 µM

---

Experiment: Growth inhibition of human OVCAR5 cells after 48 hrs by SRB assay
Type: functional
Conditions: OVCAR-5, 48 h

Substance smiles	U	Comparison operator	GI50
COc1ccc(-c2cnnn2-c2cc(OC)c3c(c2)OCO3)cc1	nM	=	374
COc1ccc(-c2nn[nH]c2-c2cc(OC)c3c(c2)OCO3)cc1	nM	=	49
COc1ccc(/C=C\c2cc(OC)c(OC)c(OC)c2)cc1O	nM	=	100
COc1ccc(-c2nn[nH]c2-c2cc(OC)c(OC)c(OC)c2)cc1	nM	<	10
COc1ccc(-c2nn[nH]c2-c2cc(OC)c3c(c2OC)OCO3)cc1	nM	=	3630

---

# reported EC; entries follow
Test system: Paracentrotus lividus
Experiment: Antimitotic activity against sea urchin embryo model assessed as cleavage arrest of fertilized egg compound treated at 8 to 20 mins post-fertilization and 45 to 55 mins prior to first mitotic cycle completion measured 2.5 to 5.5 hrs post-fertilization
Format: functional

Substance smiles	Comparison operator	EC, µM
COc1ccc(-c2c(N)nnn2-c2cc(OC)c(OC)c(OC)c2)cc1	>	4
COc1cccc(-c2c(C#N)nnn2-c2cccc(Cl)c2)c1	>	4
COc1ccc(-n2nnc(C(=O)O)c2-c2cc(OC)c(OC)c(OC)c2)cc1	>	4
COc1ccc(-c2cnnn2-c2cc(OC)c(OC)c(OC)c2)cc1	=	0.2
COc1ccc(-n2nncc2-c2cc(OC)c(OC)c(OC)c2)cc1	=	4

---

# EC values compiled below
Test system: Paracentrotus lividus
Assay: Antimitotic activity against sea urchin embryo model assessed as cleavage alteration of fertilized egg compound treated at 8 to 20 mins post-fertilization and 45 to 55 mins prior to first mitotic cycle completion measured 2.5 to 5.5 hrs post-fertilization
Format: functional
Measured property: EC (µM)

Substance smiles	Measured property	Comparison operator	Value
COc1ccc(-c2c(N)nnn2-c2cc(OC)c(OC)c(OC)c2)cc1	EC	=	0.1
COc1ccc(-c2nn[nH]c2-c2cc(OC)c3c(c2)OCO3)cc1	EC	=	0.0005
COc1ccc(-n2nnc(C#N)c2-c2cc(OC)c(OC)c(OC)c2)cc1	EC	=	1
Nc1nnn(-c2cccc(Cl)c2)c1-c1ccccc1	EC	>	4
COc1cc(-c2c(C(N)=O)nnn2-c2cc(OC)c(OC)c(OC)c2)cc(OC)c1OC	EC	>	4
COc1cc(-c2c(C#N)nnn2-c2cc(OC)c(OC)c(OC)c2)cc(OC)c1OC	EC	>	4
COc1ccc(-c2c(C#N)nnn2-c2cc(OC)c(OC)c(OC)c2)cc1	EC	>	4
COC(=O)c1nnn(-c2cc(OC)c(OC)c(OC)c2)c1-c1ccc(OC)cc1	EC	>	4
COc1ccc(-n2nnc(C(=O)O)c2-c2cc(OC)c(OC)c(OC)c2)cc1	EC	>	4
COc1ccc(-n2nnc(C#N)c2-c2cccc(OC)c2)cc1	EC	=	0.2
COc1cccc(-c2c(C#N)nnn2-c2cccc(Cl)c2)c1	EC	>	4
COc1ccc(-n2nncc2-c2cc(OC)c(OC)c(OC)c2)cc1	EC	=	1
CCOC(=O)c1nnn(-c2cccc(Cl)c2)c1-c1ccccc1	EC	>	4
COc1ccc(-c2nn[nH]c2-c2cc(OC)c3c(c2OC)OCO3)cc1	EC	=	0.5
COc1ccc(-c2nn[nH]c2-c2cc(OC)c(OC)c(OC)c2)cc1	EC	=	0.005
COc1ccc(-c2cnnn2-c2cc(OC)c3c(c2)OCO3)cc1	EC	=	0.01
COc1ccc(-n2nnc(N)c2-c2cc(OC)c(OC)c(OC)c2)cc1	EC	=	4
COc1cc(-c2c(C#N)nnn2-c2cccc(Cl)c2)cc(OC)c1OC	EC	=	0.5
O=C(O)c1nnn(-c2cccc(Cl)c2)c1-c1ccccc1	EC	>	4
COc1ccc(-c2c(C(N)=O)nnn2-c2cc(OC)c(OC)c(OC)c2)cc1	EC	>	4
COc1ccc(-c2cnnn2-c2cc(OC)c(OC)c(OC)c2)cc1	EC	=	0.02
COc1ccc(-c2cnnn2-c2cc(OC)c3c(c2OC)OCO3)cc1	EC	=	1
COc1ccc(-c2c(C(=O)O)nnn2-c2cc(OC)c(OC)c(OC)c2)cc1	EC	>	4
COc1ccc(/C=C\c2cc(OC)c(OC)c(OC)c2)cc1O	EC	=	0.002
Clc1cccc(-n2nncc2-c2ccccc2)c1	EC	>	4
COc1ccc(/C=C\c2cc(OC)c3c(c2)OCO3)cc1O	EC	=	0.002
COc1ccc(-c2c(C#N)nnn2-c2ccc(OC)cc2)cc1	EC	=	4
